Test: inhibitors of mutant huntingtin aggregation, primary screen, imaging, exon1htt(103Q)mCFP cells, high-content imaging (AID 483);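 note: compound exposure lasted 3 days before fixation; percent of the per-plate median nuclei count of sample wells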
Details: exon1htt(103Q)mCFP cell line, aggregate imaging, at 2 µM; measured here: cell count, toxicity
readout: nuclei count

compound	readout	value-reported
Cc1cc(C)c(C#N)c(SCc2[nH]nc3c2C(c2ccccc2)C(C#N)=C(N)O3)n1 (stereo unspecified)	nuclei count	104%
CC(=O)OCC(=O)[C@H]1CC[C@H]2[C@@H]3CCC4=CC(=O)CC[C@]4(C)[C@H]3CC[C@]12C	nuclei count	83.1%
Clc1ccc(-n2ncc3c(NCCCn4ccnc4)ncnc32)cc1	nuclei count	105%
Cc1cccc(COc2ccc(/C(O)=C3\C(=O)C(=O)N(CCN(C)C)C3c3ccncc3)cc2)c1 (stereo unspecified)	nuclei count	106%
CCN(CC)CCN1C(=O)C(O)=C(C(=O)c2ccco2)C1c1ccccn1 (stereo unspecified)	nuclei count	89.2%
COc1ccccc1C1C(C#N)=C(N)Oc2cc(C)n(Cc3ccccn3)c(=O)c21 (stereo unspecified)	nuclei count	99.3%
N=c1c(C(=O)NCc2ccccc2)cc2c(=O)n3ccccc3nc2n1Cc1ccco1	nuclei count	91.6%
CCCCOc1ccc(C(=O)CCN2CCCCC2)cc1	nuclei count	92.4%
CN(C)c1ccc(C=NCC2(O)CCOC(C)(C)C2)cc1 (stereo unspecified)	nuclei count	108%
C[C@@H]1CCC[C@H](C)N1NC(=O)c1ccc(Cl)c(S(N)(=O)=O)c1	nuclei count	108%
C=C1[C@@H](C)C2[C@H](Cc3ccccc3)NC(=O)[C@]23OC(=O)CC[C@H](O)CCC[C@H](C)C/C=C/[C@H]3[C@@H]1O (stereo partly specified)	nuclei count	42.3%
CCCCN(CCCC)CCCOC(=O)c1ccc(N)cc1	nuclei count	97.6%
O=S(=O)(NCc1cccnc1)c1cccc2nsnc12	nuclei count	125%
Cc1nc(-c2coc3cc(OCC(=O)O)ccc3c2=O)cs1	nuclei count	100%
CCN(CC)CCNC(=O)c1ccc(NC(C)=O)cc1	nuclei count	94.5%
COc1cc(/C=C/C(=O)CC(=O)/C=C/c2ccc(O)c(OC)c2)ccc1O	nuclei count	105%
Cn1nnnc1SCC1=C(C(=O)O)N2C(=O)[C@@H](NC(=O)[C@H](O)c3ccccc3)[C@H]2SC1	nuclei count	106%
COc1ccc2c(c1OC)C(=O)O[C@@H]2[C@H]1c2c(cc3c(c2OC)OCO3)CCN1C	nuclei count	97.2%
CC(CN1c2ccccc2Sc2ccccc21)N(C)C (stereo unspecified)	nuclei count	100%
CCc1cc2c(=O)c(-c3nc4ccccc4[nH]3)coc2cc1OC(=O)N1CCOCC1	nuclei count	126%
CN1CCC(=C2c3ccccc3CC(=O)c3sccc32)CC1	nuclei count	97.7%

====

Each entry below lists one item and its recorded inhibition value.
Assay: inhibitors of E-selectin induction by TNFa, primary screen, imaging, HUVEC, immunofluorescence, MLSMR starter and 10KST1 sets (AID 487);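 note: signal is fraction of cell area covered by stained E-selectin grains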
Conditions: HUVEC TNFalpha-induced E-selectin immunofluorescence imaging, at 2 µM; stronger effect = higher value

molecule	inhibition (%)
CN(C)CCN(Cc1ccccc1)c1ccccn1	-31.1
OC[C@H]1O[C@@H](n2cnc3c(NC4CCCC4)ncnc32)[C@H](O)[C@@H]1O	-19.6
Cc1nn(-c2cccc(Cl)c2)c2c1C(c1ccncc1)C(C#N)=C(N)O2 (stereo not given)	-56
Cc1c(NC(=O)c2ccc(=O)oc2)c(=O)n(-c2ccccc2)n1C	-22.2
CC1(C)S[C@@H]2[C@H](NC(=O)C(C(=O)O)c3ccccc3)C(=O)N2[C@H]1C(=O)O (stereo not given in full)	-51.3
CCOc1ccc(C2/C(=C(/O)c3ccc(OC)cc3)C(=O)C(=O)N2c2cc(C)on2)cc1OC (stereo not given)	-84.6
COc1ccc(OC)c(C2C(C#N)=C(N)Oc3cc(C)[nH]c(=O)c32)c1 (stereo not given)	-48.5
O=C1OC(Nc2ccc(Br)cc2F)c2ccccc21 (stereo not given)	-16.9
COc1ccccc1N1CCN(CCOc2c(OC)cccc2OC)CC1	-105
CCN(CC)CCCn1c(C)cc2c(c1=O)C(c1ccccc1)C(C#N)=C(N)O2 (stereo not given)	-54.2
